Molecular target: T1, human angiopoietin-2 (human, UniProt O15123 19-496, limits assumed)
T1 construct: Bought recombinant protein with a His tag (detected by anti-HIS-tag antibody); also called human Ang-2; hAng-2
T1 sequence (looked up): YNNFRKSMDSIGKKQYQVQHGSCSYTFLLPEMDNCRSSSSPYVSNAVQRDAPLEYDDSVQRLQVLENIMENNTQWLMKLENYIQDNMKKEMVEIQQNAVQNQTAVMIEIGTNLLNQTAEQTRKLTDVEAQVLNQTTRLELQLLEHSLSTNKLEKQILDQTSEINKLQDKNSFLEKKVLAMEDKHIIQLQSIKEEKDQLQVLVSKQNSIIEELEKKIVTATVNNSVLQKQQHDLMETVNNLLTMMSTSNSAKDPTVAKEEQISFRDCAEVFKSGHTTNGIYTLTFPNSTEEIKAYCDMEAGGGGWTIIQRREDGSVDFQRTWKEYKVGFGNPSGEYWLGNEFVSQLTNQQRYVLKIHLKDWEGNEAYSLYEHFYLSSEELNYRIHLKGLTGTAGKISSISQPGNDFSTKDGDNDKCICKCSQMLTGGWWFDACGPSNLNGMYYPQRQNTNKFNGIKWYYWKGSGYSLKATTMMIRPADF
Test: SPR Biacore T200; biotinylated mutein captured, hAng-2 analyte, 1:1 model, 25 C
Description: In the SPR affinity assay, biotinylated muteins and negative control were captured on a sensor chip CAP using the Biotin CAPture Kit (GE Healthcare): Sensor Chip CAP is pre-immobilized with an ssDNA oligo. […] Applying a flow rate of 30 μL/min, a multi cycle kinetics approach was used with a sample contact time of 180 s and a dissociation time of 4600 s. […] Data were evaluated with Biacore T200 Evaluation software (V 1.0). […]
quantity-name: koff (s⁻¹)
One number for each entry, in s⁻¹.

In: May I ask what koff has been recorded for hNGAL lipocalin mutein SEQ ID NO: 8 (designed binder, Mutein of mature hNGAL; Biotinylated with NHS-PEG4-Biotin for the SPR assay) QDSTSDLIPAPPLSKVPLQQNFQDNQFHGKWYVVGQAGNYILREDKDPGKMWATIYELKEDKSYDVTEVSFGAKKCNYRIWTFVPGSQPGEFTLGGIKSDPGGTSTLVRVVSTNYNQHAMVFFKHVLQNREFFEITLYGRTKELTSELKENFIRFSKSLGLPENHIVFPVPIDQCIDGSAWSHPQFEK ?
Out: 0.00013
